Entries with their measured pKi, system α1d-AR (Homo sapiens):
Just so you know, pKi here is -log10 of the concentration in molar units; reply with that number alone.

Write down the reported pKi of CC(C)Oc1ccccc1N1CCN([C@H]2CC[C@@H](NC(=O)NCc3cccc(F)c3)CC2)CC1 [Cpd 5] , test system: α1d-AR (Homo sapiens). 7.21

Write down the reported pKi of COc1ccc(Cl)cc1NC(=O)N[C@H]1CC[C@H](N2CCN(c3ccccc3OC(C)C)CC2)CC1 [Cpd 19] , test system: α1d-AR (Homo sapiens). 8.57

Write down the reported pKi of CC(C)Oc1ccccc1N1CCN([C@H]2CC[C@H](NC(=O)Nc3cc(F)ccc3F)CC2)CC1 [Cpd 25] , test system: α1d-AR (Homo sapiens). 8.92

Next:
Write down the reported pKi of CC(C)Oc1ccccc1N1CCN([C@H]2CC[C@@H](NC(=O)Nc3ccc(OC(F)(F)F)cc3)CC2)CC1 [Cpd 31] , test system: α1d-AR (Homo sapiens). 8.35
